Values were extracted from patent US10222368B2.

target: mu opiate receptor (MOR) (Rattus norvegicus); construct: from tissue; host or cells: striatal tissue (membrane preparation); experiment: MOR agonist activity using [35S]GTPγS binding assay in striatal membranes; assay type: biochemical; conditions: 1 μM compound, relative to DAMGO
Sequence (P33535 whole entry): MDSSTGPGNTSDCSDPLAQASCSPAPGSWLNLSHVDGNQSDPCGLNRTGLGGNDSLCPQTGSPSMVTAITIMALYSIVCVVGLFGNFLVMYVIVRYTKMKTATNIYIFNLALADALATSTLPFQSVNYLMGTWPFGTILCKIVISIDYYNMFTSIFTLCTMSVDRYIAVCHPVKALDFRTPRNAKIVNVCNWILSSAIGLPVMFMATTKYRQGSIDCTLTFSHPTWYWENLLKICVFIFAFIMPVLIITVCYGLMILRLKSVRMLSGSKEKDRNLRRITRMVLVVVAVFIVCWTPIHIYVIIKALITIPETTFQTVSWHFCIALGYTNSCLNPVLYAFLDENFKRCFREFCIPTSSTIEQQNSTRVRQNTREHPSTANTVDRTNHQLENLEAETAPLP
readout-name: % DAMGO (1 μM) (%)
The answer is to be given in %; state only the numeric part.

As a guide, the following entries are already answered.
1. CC(=O)c1ccc(S(=O)(=O)N2C(Cc3c[nH]cn3)C(=O)NC23CCNCC3)cc1 (stereo not drawn) [Compound C0119M]
83.0
2. CC(=O)c1ccc(S(=O)(=O)N2CCC3(CC2)NC(=O)CO3)cc1 [Compound C0087M]
132.8
3. CC(=O)c1ccc(S(=O)(=O)N2CCC3(CC2)OCCN3S(C)(=O)=O)cc1 [Compound C0056]
83.0
4. C=CCN1CCC2(CC1)OCCN2S(=O)(=O)c1ccc(C(C)=O)cc1 [Compound C0096M]
130.0

Give the measured % DAMGO (1 μM) of Cc1ccc(S(=O)(=O)N2CCOC23CCN(CC2CC2)CC3)cc1 [Compound C0134M] .
93.3

Now the compound CCOC(=O)CN1CCC2(CC1)OCCN2S(=O)(=O)c1ccc(C(C)=O)cc1 [Compound C0099M]
88.0
